Assay: Log D shake flask method (octanol / PBS pH 7.4, HPLC)
Format: physicochemical
Settings: octanol/phosphate-buffered saline (PBS); octanol / PBS pH 7.4, shake flask
Entries and their logD values follow.
Endpoint name: logD

# Molecule, Result
measured = [
    ("COC(=O)/C=C/CC[C@H](NC(=O)c1cnn(C)c1)C(=O)Nc1cccn(CC(=O)NC2C3CC4CC(C3)CC2C4)c1=O (stereo partly drawn) [III-130]", "1 to 3"),
    ("COC(=O)/C=C/CC[C@H](NC(=O)C1CN2CCC1CC2)C(=O)Nc1cccn(CC(=O)NC2C3CC4CC(C3)CC2C4)c1=O (stereo partly drawn) [III-32]", "3 to 5"),
    ("C=CCNC(=O)/C=C/CC[C@H](NC(=O)c1nccc2cnccc12)C(=O)Nc1cccn(CC(=O)NC23CC(C2)C3)c1=O [III-151]", "< 1"),
    ("COC(=O)/C=C/CC[C@H](NC(=O)c1ncns1)C(=O)Nc1cccn(CC(=O)NC23CC(C2)C3)c1=O [III-170]", "< 1"),
    ("COC(=O)/C=C/CC[C@H](NC(=O)c1cc2c(F)c(F)ccc2[nH]1)C(=O)Nc1cccn(CC(=O)NC2C3CC4CC(C3)CC2C4)c1=O (stereo partly drawn) [III-9]", "3 to 5"),
    ("COC(=O)/C=C/CC[C@H](NC(=O)c1cc(Cl)sc1Cl)C(=O)Nc1cccn(CC(=O)N[C@@H]2C[C@H]3CC[C@@H]2C3)c1=O [III-97]", "3 to 5"),
    ("COC(=O)/C=C/CC[C@H](NC(=O)c1oc2ccccc2c1C)C(=O)Nc1cccn(CC(=O)N[C@@H]2C[C@@H]3CC[C@H]2C3)c1=O [III-59]", "3 to 5"),
    ("COC(=O)/C=C/CC[C@H](NC(=O)c1ccn(C)n1)C(=O)Nc1cccn(CC(=O)NC2C3CC4CC(C3)CC2C4)c1=O (stereo partly drawn) [III-129]", "1 to 3"),
    ("CCCCCNC(=O)/C=C/CC[C@H](NC(=O)c1nc2ccccc2s1)C(=O)Nc1cccn(CC(=O)NC23CC(C2)C3)c1=O [III-142]", "1 to 3"),
]

Each recorded value in this set is attributed to patent US20240317708A1.
